# assay_explanation: Stability assay in 25% TIDE 2X detergent with DTPA (residual Abz-AGLA-Nba protease activity)
# Assay type: physicochemical
# measurement_parameters: 60 min at 32°C; variant residual AGLA activity divided by wild-type residual activity
recorded_endpoint: PI (relative stability), 25% TIDE 2X with DTPA
Output: the number by itself.

Endpoint output: PI (relative stability), 25% TIDE 2X with DTPA of A056C: single-substitution thermolysin variant (SEQ ID NO:3 numbering) (protein, listed as Geobacillus caldoproteolyticus) ITGTSTVGVGRGVLGDQKNINTTYSTYYYLQDNTRGNGIFTYDAKYRTTLPGSLWCDADNQFFASYDAPAVDAHYYAGVTYDYYKNVHNRLSYDGNNAAIRSSVHYSQGYNNAFWNGSQMVYGDGDGQTFIPLSGGIDVVAHELTHAVTDYTAGLIYQNESGAINEAISDIFGTLVEFYANKNPDWEIGEDVYTPGISGDSLRSMSDPAKYGDPDHYSKRYTGTQDNGGVHINSGIINKAAYLISQGGTHYGVSVVGIGRDKLGKIFYRALTQYLTPTSNFSQLRAAAVQSATDLYGSTSQEVASVKQAFDAVGVK . Value?
1.01

FYI, the data here is from patent US9976134B2.
